Where do these numbers come from? They come from patent EP4786492A1.

- tested system: human DLL3 protein expressed on CHO-K1 recombinant cells (human DLL3 extracellular segment fused to EpCAM transmembrane and intracellular regions) (human) (UniProt Q9NYJ7)
- Sequence (Q9NYJ7 other isoform, or with tags, fused parts or gaps limits assumed): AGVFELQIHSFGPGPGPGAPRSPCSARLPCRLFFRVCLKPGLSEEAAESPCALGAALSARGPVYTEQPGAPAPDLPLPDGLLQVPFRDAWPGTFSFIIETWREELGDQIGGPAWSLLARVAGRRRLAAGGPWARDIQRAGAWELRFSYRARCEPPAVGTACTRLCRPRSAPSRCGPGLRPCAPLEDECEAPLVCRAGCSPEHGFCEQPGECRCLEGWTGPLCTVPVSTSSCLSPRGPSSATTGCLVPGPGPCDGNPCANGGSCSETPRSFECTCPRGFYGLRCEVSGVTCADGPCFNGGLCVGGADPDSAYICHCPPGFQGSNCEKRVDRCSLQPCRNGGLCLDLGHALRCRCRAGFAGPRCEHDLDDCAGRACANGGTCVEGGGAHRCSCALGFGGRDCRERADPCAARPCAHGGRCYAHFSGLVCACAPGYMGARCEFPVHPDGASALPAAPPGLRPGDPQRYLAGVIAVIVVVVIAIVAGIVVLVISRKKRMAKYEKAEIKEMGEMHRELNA
- assay explanation: FACS, CHO-K1 hDLL3 cells, 0.032 nM antibody
measure: MFI
# output: number + unit

BI3 (antibody, human IgG1, kappa, V domains shown) VH: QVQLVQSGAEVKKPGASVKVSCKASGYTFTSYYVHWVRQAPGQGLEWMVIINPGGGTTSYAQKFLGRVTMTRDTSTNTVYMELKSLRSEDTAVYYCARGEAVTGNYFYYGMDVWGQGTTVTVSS VL: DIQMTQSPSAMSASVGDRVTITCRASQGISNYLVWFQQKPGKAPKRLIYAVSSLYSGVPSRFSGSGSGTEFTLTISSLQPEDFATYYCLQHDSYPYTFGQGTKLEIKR :: 924 MFI

Now, please, on to the next binder.
[Q] Report MFI for Hab009VL2aVH1-hFc (scFv, part only; not given: VL-VH linker and human IgG1 Fc, V domains shown, not shown: another chain or arm of the molecule; a dimerising Fc or GST; small tags and cut ends) VL: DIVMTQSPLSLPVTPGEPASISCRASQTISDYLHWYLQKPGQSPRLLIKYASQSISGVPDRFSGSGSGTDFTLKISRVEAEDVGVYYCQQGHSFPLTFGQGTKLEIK VH: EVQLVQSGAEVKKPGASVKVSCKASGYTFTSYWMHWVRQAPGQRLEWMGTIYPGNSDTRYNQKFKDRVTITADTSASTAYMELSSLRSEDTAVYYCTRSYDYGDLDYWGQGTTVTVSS please.
[A] 1610 MFI
